These measurements were taken from ChEMBL document CHEMBL3507680.

cytotoxicity at 70.5 h listing for selected compounds.
Experiment summary: Human HepG2 cell viability assay in 384 well format
Format: toxicity, cell-based
Design: dose 125 nL, time 70.5 hour; concentration not given beside the values
Experimental conditions: HepG2 cells, read-out: Inhibition

Compound	cytotoxicity at 70.5 h [%]
COc1ncnc2c1CCN(Cc1nccs1)CC2	-8.56
CN(CCCOc1ccccc1Cl)C(=O)CN1C(=O)CCNC1=O	-3.2
CN(C)[C@H]1COC[C@@H]2CN(Cc3ccc4c(c3)OCO4)C[C@@H]21	-3.62
CCOCCNC(=O)c1cccc(Cn2nc(C)cc2C)c1	-7.21
CCOC(=O)c1c(NC(=O)C2CCN(C(C)=O)CC2)sc(C)c1CC	-6.22
Cc1nc(CC2CCN(C(=O)C(c3ccccc3C)N(C)C)CC2)no1 (configuration not stated)	-13.1
CCN1CCc2[nH]cnc2C12CCN(C(=O)CCc1cccs1)CC2	6.97
COc1cc(CC(=O)Nc2cccc(C(=O)N(C)C)n2)ccc1C	46.5
Nc1c(C(=O)C2CCCN(C(=O)C3CC3)C2)cnn1-c1ccc(F)cc1 (configuration not stated)	-2.33
Clc1cccc(CNc2cnn(CCN3CCCCC3)c2)c1	-11.9
Cc1nccc(C2(C)CCCNC2)n1 (configuration not stated)	16.5
Cc1cnn(CC2CCCN2C(=O)c2c(C)noc2C)c1 (configuration not stated)	-11
